The following compounds are shown together with reported melting point values.

Below, 2 compounds whose answers are already recorded.
| COMPOUND | MEASURED ENDPOINT | MEASURED VALUE |
| --- | --- | --- |
| CNC(=O)/C=C/c1ccc(C(=O)NCC(=O)N(C)c2ccc(Cl)c(COc3cccc4ccc(C)nc34)c2Cl)cc1 | melting point | 143 to 150 °C |
| CC(=O)OC1CCN(c2c(F)cc3c(=O)c(C(=O)O)cn4c3c2CCC4C)CC1 (stereo not drawn) | melting point | 250 to 253 °C |

Okay, now this compound:
Enquiry: Which melting point value belongs to COc1cc(N)c(Cl)cc1C(=O)NC1CCN(CC2CCN(C(C)C(C)=O)CC2)CC1 (stereo not drawn) ?
Return: 268 to 270 °C

---

Collected melting point values appear next to each entry.

Worked cases, answers included:
| MOLECULE | MEASURED ENDPOINT | MEASURED VALUE |
| --- | --- | --- |
| O=C(c1ccc(NC(=O)C(O)(C(F)F)C(F)F)cc1)c1ccccn1 | melting point | 158 to 161 °C |
| Cn1cc2c(nc(NC(=O)Nc3ccc(CC(=O)NCCCCNC(=O)OC(C)(C)C)cc3)n3nc(-c4ccco4)nc23)n1 | melting point | 186 to 193 °C |
| CCOC(=O)NCC(=O)c1ccc(OCC(=O)OC)cc1 | melting point | 128 to 129 °C |
| CON=C(c1ccc2c(c1)sc(=O)n2CCOc1ccc(CC(OCC(F)(F)F)C(=O)O)cc1)C1CC1 (configuration not stated) | melting point | 33 to 34 °C |
| CCCCc1nc2ccc(C3=NN4CCCC4C3)cc2c(=O)n1Cc1ccc(-c2ccccc2-c2nnn[nH]2)cc1 (configuration not stated) | melting point | 126 °C |

Enquiry: // melting point lookup, key: Cc1nc(-c2ccccc2)nc(-c2cccc([N+](=O)[O-])c2)c1CC#N
Return: 219 to 221 °C

Enquiry: Report melting point for CON(Cc1ccc(C(=O)OC(C)(C)C)cc1)C(=O)C1=C(O)C(=O)N(C)C1 please.
Return: 157 to 160 °C

---

MEASURED ENDPOINT: melting point

Sample answers from the record:
| SMILES STR | MEASURED ENDPOINT | MEASURED VALUE |
| --- | --- | --- |
| CCNc1nc(SC)ncc1CO | melting point | 152 to 156 °C |
| COC(=O)[C@H]1CN(CCO)CC[C@H]1NC(=O)OCc1ccccc1 | melting point | 73 °C |
| CC(C)(C)c1cc(C(=O)CCCCOc2ccc(C(=O)C(=O)O)cc2)cc(C(C)(C)C)c1O | melting point | 144 to 145 °C |
| Clc1ccc2nc(Cl)nc(-c3ccccc3Cl)c2c1 | melting point | 175 to 176 °C |

Now consider a different compound.
Enquiry: # lookup: melting point of CSc1nnc(SCC(=O)C23CC4CC(CC(C4)C2)C3)s1
Return: 134 to 135 °C

---

Reported values of melting point for individual entries

Here is how some compounds turned out for melting point.
| COMPOUND | MEASURED VALUE |
| --- | --- |
| Cc1ccnc(N2CCN(CCc3c(C)n4c5c(cc(Br)cc35)CCC4)CC2)c1 | 200 °C |
| CCCc1nc2c(N)nc3cc(OCc4cccc(C)c4)ccc3c2n1CC(C)C | 200 to 203 °C |

Enquiry: Requested field: melting point. Item: N#CCCNC(=O)c1cccc(-c2ccc3c(c2)C(c2cc(Cl)ccc2Cl)CC3)c1 (stereo not drawn)
Return: 135 to 136 °C

---

Below, each entry is listed alongside its reported melting point.

| MOLECULE | melting point |
| --- | --- |
| C=C(CC)C(=O)c1ccc(OCCCC(=O)O)c(Cl)c1Cl | 87 to 89 °C |
| CCCc1ccc(S(=O)(=O)NN2CCOCC2)cc1 | 150 to 152 °C |
| Cc1cc(CCCCCOc2ccc(-c3cnco3)cc2)on1 | 91 to 93 °C |
| COc1ccc2c(Cc3c(Cl)cncc3Cl)nncc2c1C#Cc1ccccc1 | 217 to 219 °C |
| CC(C)(C)OC(=O)Nc1cc2cc(OCc3ccccc3)ccc2cc1OCc1ccccc1 | 179 to 182 °C |
| O=C(O)Cc1ccc2oc(-c3ccccc3)nc2c1 | 175 °C |

Enquiry: # query: melting point of entry COC(=O)c1ccc(N2CCCC2=O)c(N)c1
Return: 136 to 138 °C

Enquiry: Quick one: melting point of CCCCCCCCc1ccc(OCC(=O)Cn2c(C(=O)O)cc3ccccc32)cc1 ?
Return: 173 °C

Enquiry: Looking for the measured melting point of CSC1=N/C(=C\c2c[nH]c3ncc(Cl)cc23)C(=O)N1 , can you help?
Return: > 410 °C

Enquiry: So what's the measured melting point for this one? CC(O)(CCCl)c1ccc(-c2cccc(Cl)c2)cc1 (stereo not drawn)
Return: 98 to 100 °C

Enquiry: For C1=C(c2c[nH]c3ccccc23)CCNC1 , what is its reported melting point?
Return: 185 to 186 °C

Enquiry: Query: melting point; subject: COc1ccc2c(c1)c(Cc1nc(-c3cccc([N+](=O)[O-])c3)cs1)c(C)n2C(=O)c1ccc(Cl)cc1
Return: 162 to 164 °C

Enquiry: Could you tell me which melting point is on file for COc1cc(C=CC(=O)Nc2cnc3ccc(C)cc3c2-c2ccccc2Cl)cc(OC)c1O ?
Return: 235 to 236 °C

---

# maps each entry to its melting point

Solved entries (count: 2):
| COMPOUND | MEASURED VALUE |
| --- | --- |
| Cn1c(COc2ccc(CC3SC(=O)NC3=O)cc2)nc2ccc(Oc3ccc(NC(=O)C4CCCCC4)cc3)cc21 (stereo not drawn) | 182 to 184 °C |
| O=C1CC(Cc2ccc(Cl)cc2Cl)CN1 (stereo not drawn) | 85 to 86 °C |

Let's switch to this compound now.
Enquiry: Which melting point is listed for NC(=O)c1nc2cc(F)c([N+](=O)[O-])cc2[nH]c1=O ?
Return: > 300 °C

---

MEASURED ENDPOINT: melting point

The following molecules have reported results that may help.
| MOLECULE | melting point |
| --- | --- |
| O=C(O)c1csc(-c2ncccc2O)n1 | > 300 °C |
| O=C(CCCCCCC(=O)N1CCN(c2cccc(C(F)(F)F)c2)CC1)NO | 126 to 128 °C |
| Clc1nn2c(-c3ccccc3)nnc2c2ccccc12 | 172 to 174 °C |
| CCOC(=O)Nc1nc2ccccc2c2c1nc(CC)n2CCCCNS(C)(=O)=O | 185 to 187 °C |

Enquiry: Query (molecule): C#CCN1C(=O)N(c2ccc(C#N)c(C(F)(F)F)c2)C(=O)C1(CF)CF ; field requested: melting point
Return: 126 to 127 °C

---

MEASURED ENDPOINT: melting point

Past entries and their recorded results:
| SMILES STR | melting point |
| --- | --- |
| CC(C)(C)c1cc(NC(=O)Nc2ccc(Oc3cccc(NC(=O)OCc4ccccc4)c3)cc2)no1 | 73 to 75 °C |
| CC(C)c1ccc(N)nn1 | 131 to 132 °C |

Enquiry: Could you share which melting point value was measured for CC(=O)Oc1nc(-c2ccccc2)sc1-c1ccccc1 ?
Return: 101 to 103 °C

---

MEASURED ENDPOINT: melting point

The cases that follow already have their melting point on record.
| COMPOUND | MEASURED VALUE |
| --- | --- |
| O=C(O)c1ccccc1-c1cc(-c2ccccc2)on1 | 144 to 146 °C |
| N#Cc1ccccc1Sc1nsc2ccccc12 | 116 to 117 °C |
| CCCC(=O)Nc1n[nH]c2cc(-c3ccc(OC(F)(F)F)cc3)ccc12 | 234 °C |
| Ic1sc2ccccc2c1Oc1ccc(OCc2ccccc2)cc1 | 87 to 92 °C |
| Cc1oc(-c2ccccc2)nc1CCC(=O)c1ccc(C=CC=O)cc1 | 119 to 120 °C |
| CCCNC(=NC#N)Nc1cccnc1 | 164 to 165 °C |
| CC(=O)OCc1nc(-c2ccc3c(c2)OCO3)c2cc3c(cc2n1)OCO3 | 144 to 147 °C |
| CC(=O)SCC(CC(C)C)C(=O)NCCCCCC(N)=O (stereo unspecified) | 64 to 80 °C |
| O=C(CCl)Nc1ccc(Cl)cc1C(=O)O | 188 °C |
| NS(=O)(=O)c1ncccc1C(=O)OC1COC1 | 140 to 142 °C |

Enquiry: Name the recorded melting point for O=C(CC1CCCCC1=O)c1ccccc1 (stereo unspecified) .
Return: 44 to 45 °C

Enquiry: Suppose we examine the compound COc1ccc(C)cc1NC(=O)Nc1ccc(N2CCN(C(=O)OC(C)(C)C)C(C)C2)cc1 (stereo unspecified) ; what melting point value has been reported?
Return: 167 to 168 °C

Enquiry: melting point lookup needed for CC(C)(C)OC(=O)N1CCn2c(c(C(=O)O)c(C#N)c2-c2ccccc2)C1 , thanks.
Return: 212 to 215 °C

Enquiry: Can you look up the measured melting point of Cc1cc(Cl)ccc1NC=NO for me?
Return: 171 to 172 °C
